Listing of recorded EC50 by entry.
measurement.target: T1, PCSK9-BP15-His6 (human, UniProt Q8NBP7 31-692, biotin on the BP15 biotin receiving peptide)
T1 construct: It holds a signal peptide (underlined in print); also called WT PCSK9; bio-WT-PCSK9
protocol.summary: ELISA, bio-WT-PCSK9 captured on streptavidin plate
metric: EC50 (µg/mL)

binder="h001-3 (antibody, human IgG1, V domains shown, Variable regions only; also called h001_VH.1 + h001_VL.1B) VH: QVQLVQSGAEVKKPGASVKVSCKASGYTFTDYWMHWVRQAPGQGLEWMGYINPSSGFTKYHQNFKDRVTMTRDTSISTAYMELSRLRSDDTAVYYCARQYDYDEDWYFDVWGQGTTVTVSS VL: DIQMSQSPSSLSASVGDRVTITCKSSQSLLNSRTRKNFLAWYQQKPGKAPKLLIYWASTRESGVPDRFSGSGSGTDFTLTISSLQPEDFATYYCKQSFNLFTFGQGTKLEIK" result_value=0.0113
binder="h001-19 (antibody, human IgG1, V domains shown, Variable regions only; also called h001_VH.1D + h001_VL.1B) VH: QVQLVQSGAEVKKPGASVKVSCKASGYTFNDYWMHWVRQAPGQGLEWMGYINPSSGFTKYHQNFKDRVTMTADKSISTAYMELSRLTSDDTAVYYCARQYDYDEDWYFDVWGQGTTVTVSS VL: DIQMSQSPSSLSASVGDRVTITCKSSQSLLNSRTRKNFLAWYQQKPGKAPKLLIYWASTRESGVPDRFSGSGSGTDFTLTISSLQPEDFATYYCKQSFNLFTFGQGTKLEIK" result_value=0.0139

These measurements were taken from patent US20190016825A1.
